# assay.system: GSK3b (GST-full length GSK3b) (Homo sapiens (Human), UniProt P49841)
# Sequence (P49841 whole entry): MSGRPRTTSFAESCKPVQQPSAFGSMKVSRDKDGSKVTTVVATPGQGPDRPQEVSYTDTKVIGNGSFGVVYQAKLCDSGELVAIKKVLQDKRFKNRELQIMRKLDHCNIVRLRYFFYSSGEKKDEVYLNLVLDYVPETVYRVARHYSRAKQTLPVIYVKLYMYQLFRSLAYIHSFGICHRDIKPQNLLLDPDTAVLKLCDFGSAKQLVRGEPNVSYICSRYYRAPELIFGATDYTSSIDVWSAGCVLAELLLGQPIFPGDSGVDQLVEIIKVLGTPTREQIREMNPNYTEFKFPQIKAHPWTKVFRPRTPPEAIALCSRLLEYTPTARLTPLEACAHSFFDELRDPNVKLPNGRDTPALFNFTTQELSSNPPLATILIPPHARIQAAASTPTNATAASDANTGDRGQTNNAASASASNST
# assay.overview: GSK3b TR-FRET kinase assay
# Format: biochemical
# run.parameters: 1 nM GSK3b, 2 μM ATP, 30 minute preincubation, Table 16; read-out: GSK3-B TR-FRET BIOCHEMICAL (TR-FRET); IC50
# Protocol: TR-FRET Assay: The assay was performed in a white, 384 well, low volume, flat bottom plate (Grenier). After a 30 minute preincubation in assay buffer with the indicated concentration of compound, the kinase activity was initiated by the addition of the substrates. […] After 60 min at room temperature the plate was read on Envision plate reader using Ex: 340 nm, Em: 615 nm and […]. The normalized 665/615 Signal ratio versus log compound concentration was analyzed by XLFIT to yield IC50 values.
Below, each entry is listed with its recorded IC50.

Field: example entries. Status: answers known.
CCC1(CC)C2=C(CC(C)(C)CC2=O)Nc2n[nH]cc21 ... > 5000 nM
CCC1(c2cccc(N(C)C(=O)c3cnn(C)c3)c2)C2=C(CC(C)(C)CC2=O)Nc2n[nH]cc21 (stereo not shown) [Compound 912068] ... 100 to 1000 nM
CC[C@]1(c2cccc(C(F)(F)F)c2)C2=C(CCN(c3cnn(C)c3C)C2=O)Nc2n[nH]cc21 ... 100 to 1000 nM

Problem: Provide value of IC50 for this record tested with GSK3b (GST-full length GSK3b) (Homo sapiens (Human), UniProt P49841): CC1(C)CC(=O)C2=C(C1)Nc1n[nH]cc1[C@]21CCC[C@@H](C#N)C1
Result: 1000 to 5000 nM

Problem: Provide value of IC50 for this record tested with GSK3b (GST-full length GSK3b) (Homo sapiens (Human), UniProt P49841): CC1(C)CC(=O)C2=C(C1)Nc1n[nH]cc1[C@@]21CCO[C@@H](C(C)(C)C)C1
Result: 1000 to 5000 nM

Problem: Provide value of IC50 for this record tested with GSK3b (GST-full length GSK3b) (Homo sapiens (Human), UniProt P49841): CC[C@@]1(c2cccc(-c3cc(C)nn3-c3ccccc3)c2)C2=C(CC(C)(C)NC2=O)Nc2n[nH]cc21
Result: 100 to 1000 nM

Problem: Provide value of IC50 for this record tested with GSK3b (GST-full length GSK3b) (Homo sapiens (Human), UniProt P49841): CCC1(c2cccc(C(F)(F)F)c2)C2=C(CCN(c3ccsc3)C2=O)Nc2n[nH]cc21 (stereo not shown)
Result: 100 to 1000 nM

---

Below, each entry is listed with its recorded IC50.
# assay.system: GSK3α (GST-full length GSK3α) (Homo sapiens (Human), UniProt P49840)
# Sequence (P49840 whole entry): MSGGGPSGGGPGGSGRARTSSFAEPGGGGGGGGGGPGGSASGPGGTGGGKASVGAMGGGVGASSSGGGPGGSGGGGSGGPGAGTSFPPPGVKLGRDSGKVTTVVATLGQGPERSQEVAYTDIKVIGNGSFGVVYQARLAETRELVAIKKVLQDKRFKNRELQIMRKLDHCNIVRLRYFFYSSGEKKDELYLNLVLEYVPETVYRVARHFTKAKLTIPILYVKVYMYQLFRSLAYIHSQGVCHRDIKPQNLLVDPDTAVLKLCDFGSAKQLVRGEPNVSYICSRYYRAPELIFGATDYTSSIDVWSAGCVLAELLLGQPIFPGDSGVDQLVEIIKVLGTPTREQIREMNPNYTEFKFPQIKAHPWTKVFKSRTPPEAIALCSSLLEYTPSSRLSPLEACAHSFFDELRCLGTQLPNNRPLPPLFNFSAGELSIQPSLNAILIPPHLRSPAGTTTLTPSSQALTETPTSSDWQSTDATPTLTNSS
# assay.overview: GSK3α TR-FRET kinase assay
# Type: biochemical
# run.parameters: 1 nM GSK3α, 4 μM ATP, 30 minute preincubation, Table 16; read-out: GSK3-A TR-FRET BIOCHEMICAL (TR-FRET); IC50

Field: example entries. Status: answers known.
CCC1(c2cccc(-c3cn[nH]c3)c2)C2=C(CC(C)(C)CC2=O)Nc2n[nH]c(C)c21 (stereo not shown) [Compound 913044] ... 100 to 1000 nM
CC[C@@]1(c2cccc(-c3cc(C4CCCC4)nn3C)c2)C2=C(CC(C)(C)NC2=O)Nc2n[nH]cc21 [Compound 949509] ... > 5000 nM
CCC1(c2cccc(-c3ccncc3F)c2)C2=C(CC(C)(C)NC2=O)Nc2n[nH]c(Cl)c21 (stereo not shown) [Compound 949324] ... ≤ 100 nM

Problem: Would you kindly share the measured IC50 for CC[C@]1(c2cccc(-c3cc(C(F)(F)F)nn3C)c2)C2=C(CC(C)(C)NC2=O)Nc2n[nH]cc21 [Compound 952018] ?
Result: 100 to 1000 nM
